Reported one-hybrid fitness for binding NBS DNA values for a set of variants
B1: Caulobacter ParB omega fusion; a variant is named by its letters at X, in order, B8GW30 (parent)
chain: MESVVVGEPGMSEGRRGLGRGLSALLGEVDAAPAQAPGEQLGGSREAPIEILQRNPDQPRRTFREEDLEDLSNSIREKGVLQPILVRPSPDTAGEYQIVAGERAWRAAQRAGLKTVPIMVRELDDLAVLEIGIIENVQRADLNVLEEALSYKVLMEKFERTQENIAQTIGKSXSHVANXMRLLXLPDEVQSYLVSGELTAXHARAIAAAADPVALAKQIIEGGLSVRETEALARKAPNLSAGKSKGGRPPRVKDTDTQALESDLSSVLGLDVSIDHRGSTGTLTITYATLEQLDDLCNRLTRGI

# Variants of: B1
# Protocol notes: one-hybrid fitness for binding NBS DNA (the Noc-binding site; scaled: cognate 1, non-cognate 0); higher = stronger binding
# Measurement conditions: with NBS DNA site
The full ranking holds about 81,000 sequences; the median of “one-hybrid fitness for binding NBS DNA” is about -0.1, and the highest 2% start at about 0.36. Shown is part of a subset that was picked to be rich in the highest values.

So, VTLK ? Its one-hybrid fitness for binding NBS DNA was ≤ 0.2

So, QLGT ? Its one-hybrid fitness for binding NBS DNA was 0.369

So, QSMK ? Its one-hybrid fitness for binding NBS DNA was ≤ 0.2

So, REMW ? Its one-hybrid fitness for binding NBS DNA was ≤ 0.2

So, KESF ? Its one-hybrid fitness for binding NBS DNA was ≤ 0.2

So, QINH ? Its one-hybrid fitness for binding NBS DNA was ≤ 0.2

So, QSNT ? Its one-hybrid fitness for binding NBS DNA was 0.476

So, PDHK ? Its one-hybrid fitness for binding NBS DNA was ≤ 0.2

So, VDGR ? Its one-hybrid fitness for binding NBS DNA was ≤ 0.2

So, RRDQ ? Its one-hybrid fitness for binding NBS DNA was 0.241

So, CVPS ? Its one-hybrid fitness for binding NBS DNA was ≤ 0.2

So, DMPS ? Its one-hybrid fitness for binding NBS DNA was ≤ 0.2

So, QIDT ? Its one-hybrid fitness for binding NBS DNA was ≤ 0.2

So, AEIR ? Its one-hybrid fitness for binding NBS DNA was ≤ 0.2

So, NLDC ? Its one-hybrid fitness for binding NBS DNA was ≤ 0.2

So, SHQT ? Its one-hybrid fitness for binding NBS DNA was ≤ 0.2

So, RRMH ? Its one-hybrid fitness for binding NBS DNA was 0.403

So, RRVQ ? Its one-hybrid fitness for binding NBS DNA was 0.428

So, QCNT ? Its one-hybrid fitness for binding NBS DNA was 0.569

So, QSGT ? Its one-hybrid fitness for binding NBS DNA was 0.385

So, RSVQ ? Its one-hybrid fitness for binding NBS DNA was ≤ 0.2

So, QSND ? Its one-hybrid fitness for binding NBS DNA was ≤ 0.2

So, RCKQ ? Its one-hybrid fitness for binding NBS DNA was 0.254

So, RIFR ? Its one-hybrid fitness for binding NBS DNA was 0.243
